From: PubChem BioAssay (NCI)

# Test system: SF-295 CNS
# experiment: NCI tumour cell line growth inhibition, 48 h
Entries and their GI50

A selection of reference data follows.
compound: Oc1ccc(CCNc2nc3ccccc3c3[nH]c4ccccc4c23)cc1O
measured-on: SF-295 CNS
GI50: 5.51 µM

compound: COC1C(OC(=O)/C=C/C=C/C=C/C=C/C(=O)O)CCC2(CO2)C1C1(C)OC1CC=C(C)C (centres undefined)
measured-on: SF-295 CNS
GI50: 0.193 µM

compound: COc1ccccc1C1C(C#N)=C(N)SC(N)=C1C#N
measured-on: SF-295 CNS
GI50: 67 µM

Query the reported GI50 for SF-295 CNS; item: CC(=O)Nc1ccc(CC[C@H]2CCC/C=C/[C@@H]3C[C@H](O)C[C@H]3[C@H](O)/C=C/C(=O)O2)cc1
0.201 µM

Query the reported GI50 for SF-295 CNS; item: C=CC(=O)N1CCN([C@@H](CC2CC2)c2ccc([C@H](C)Nc3ncc4c(n3)N(CC)C(=O)OC4)cc2)CC1
13 µM

Give the reported GI50 for CCCCCCCCCCCC(c1ccccc1)[N+](C)(C)C (centres undefined) (system: SF-295 CNS).
2.32 µM

Query the reported GI50 for SF-295 CNS; item: COc1ccc2c(c1[N+](=O)[O-])CC[C@@H]1[C@@H]2CC[C@]2(C)C(=O)CC[C@@H]12
342 µM

Recall the recorded GI50 for Clc1ccc2c(NC3CCC(NC4CCCCC4)CC3)ccnc2c1 (centres undefined) with SF-295 CNS and state it.
1.92 µM

Write down the reported GI50 of C=CCn1c(SCC(=O)Nc2ccc(C(=O)/C=C/c3cc(OC)c(OC)c(OC)c3)cc2)nnc1-c1cc(OC)c(OC)c(OC)c1 , test system: SF-295 CNS.
5.25 µM
